Source listed as ChEMBL document CHEMBL1125702.

Test system: Cynomolgus monkey
Experiment: Compound was evaluated for pseudo Hill coefficients (nH) in cynomolgus monkeys
Assay type: ADME, organism-based, Macaca fascicularis
Conditions: in vivo
Measured Hill coefficient of individual entries
Record the value in nH, omitting the unit from your answer.

Molecule	Assayed System	Unit Symbol	Hill coefficient
CCCN1C2CCC1C(C(=O)OC)[C@@H](c1ccc(F)cc1)C2 (stereo not given in full)	Cynomolgus monkey	nH	0.7
COC(=O)C1C2CCC(C[C@@H]1c1ccc(F)cc1)N2 (stereo not given in full)	Cynomolgus monkey	nH	0.64
COC(=O)[C@H]1[C@@H](c2ccc(F)cc2)C[C@H]2CC[C@H]1N2C	Cynomolgus monkey	nH	0.66
COC(=O)[C@H]1[C@@H](OC(=O)c2ccccc2)C[C@@H]2CC[C@H]1N2C [COCAINE]	Cynomolgus monkey	nH	0.54

Attention now turns to another entry.
Notebook: C=CCN1C2CCC1C(C(=O)OC)[C@@H](c1ccc(F)cc1)C2 (stereo not given in full) , Hill coefficient read as 0.65
